Quick reference: pEC50 of the listed items.
- test-system: human GLP-1R (Homo sapiens)
- method-summary: GLP-1R Cell Assay 1: cAMP Hunter CHO-K1 GLP1R Gs cell line, HitHunter cAMP assay
- Assay type: cell-based
- measurement-conditions: Table 2; cAMP Hunter CHO-K1 GLP1R Gs cells; percent activity normalized to Exendin-4
pEC50: −log10 of the molar value.
quantity: pEC50

INSERT INTO measurements (compound, sign_qualifier, reported_measurement) VALUES
  ('O=C(O)c1ccc2nc3n(c2c1)CCOC[C@@H]3N1CCC(c2cccc(OCc3ccccc3)n2)CC1 [Compound 94]', '=', 6.82),
  ('O=C(O)c1ccc2nc(CN3CCN(c4ccc5ncn(Cc6ccccc6)c5n4)CC3)n(C[C@@H]3CCO3)c2c1 [Compound 28]', '<', 6.30),
  ('CN(Cc1ccc(C#N)cc1)c1cccc(N2CCN(Cc3nc4ccc(C(=O)O)cc4n3C[C@@H]3CCO3)CC2)n1 [Compound 63]', '=', 7.26),
  ('O=C(O)c1ccc2nc(CN3CCN(c4cccc(OCC5CCOCC5)n4)CC3)n(C[C@@H]3CCO3)c2c1 [Compound 33]', '<', 6.30),
  ('N#Cc1ccc2c(c1)CN(c1cccc(N3CCN(Cc4nc5ccc(C(=O)O)cc5n4C[C@@H]4CCO4)CC3)n1)C2 [Compound 57]', '<', 6.30),
  ('N#Cc1ccc(COc2cccc(N3CCN(Cc4nc5ccc(C(=O)O)cc5n4C[C@@H]4CCS4(=O)=O)CC3)n2)c(F)c1 (single isomer, unassigned) [Compound 140-P1]', '=', 9.24),
  ('O=C(O)c1ccc2nc(CN3CCN(c4cccc(OCc5ccccc5)n4)C(=O)C3)n(C[C@@H]3CCO3)c2c1 [Compound 19]', '=', 7.38),
  ('N#Cc1ccc2c(c1)CCN(c1cccc(N3CCN(Cc4nc5ccc(C(=O)O)cc5n4C[C@@H]4CCO4)CC3)n1)CC2 [Compound 2]', '<', 6.30),
  ('O=C(O)c1ccc2nc(CN3CCN(c4cccc(OCC5CCC6(CC5)COC6)n4)CC3)n(C[C@@H]3CCO3)c2c1 [Compound 46]', '<', 6.30),
  ('O=C(O)c1ccc2nc(CN3CCN(c4cccc(OCC5CCS(=O)(=O)CC5)n4)CC3)n(C[C@@H]3CCO3)c2c1 [Compound 54]', '<', 6.30),
  ('N#Cc1cc(F)c2c(c1)CCN(c1cccc(N3CCN(Cc4nc5ccc(C(=O)O)cc5n4C[C@@H]4CCO4)CC3)n1)C2 [Compound 73]', '=', 8.85),
  ('N#Cc1ccc2c(c1)CCN(c1ccn(C3CCN(Cc4nc5ccc(C(=O)O)cc5n4C[C@@H]4CCO4)CC3)n1)CC2 [Compound 106]', '<', 6.30),
  ('N#Cc1ccc2c(c1)CN(c1ccn(C3CCN(Cc4nc5ccc(C(=O)O)cc5n4C[C@@H]4CCO4)CC3)n1)CC2 [Compound 25]', '<', 6.30),
  ('O=C(O)c1ccc2nc(CN3CCN(c4cccc(OCc5ccc6ocnc6c5)n4)CC3)n(C[C@@H]3CCO3)c2c1 [Compound 103]', '=', 8.26);

----------
- test-system: human GLP-1R (Homo sapiens)
- method-summary: GLP-1R Cell Assay 1: cAMP Hunter CHO-K1 GLP1R Gs cell line, HitHunter cAMP assay
- Type: cell-based
- measurement-conditions: Table 2; cAMP Hunter CHO-K1 GLP1R Gs cells; percent activity normalized to Exendin-4
# label = Criterion met if EC50 < 6 nM else Criterion not met

INSERT INTO results (compound, assigned_category) VALUES
  ('O=C(O)c1ccc2nc(CN3CCC(c4cccc(C5CCc6ccccc6C5)n4)CC3)n(C[C@@H]3CCO3)c2c1 (stereo partly shown)', 'Criterion not met'),
  ('O=C(O)c1ccc2nc(CN3CCN(c4cccc(OCc5ccc(Cl)cn5)n4)CC3)n(C[C@@H]3CCO3)c2c1', 'Criterion met'),
  ('N#Cc1ccc(COc2nn(C3CCN(Cc4nc5ccc(C(=O)O)cc5n4C[C@@H]4CCO4)CC3)cc2F)c(F)c1', 'Criterion met'),
  ('O=C(O)c1ccc2nc(CN3CCN(c4cccc(OCC5CC6(CCOCC6)C5)n4)CC3)n(C[C@@H]3CCO3)c2c1', 'Criterion not met'),
  ('CCc1cn(C2CCN(Cc3nc4ccc(C(=O)O)cc4n3C[C@@H]3CCO3)CC2)nc1OCc1ccc(C#N)cc1F', 'Criterion not met'),
  ('O=C(O)c1ccc2nc(CN3CCN(c4cccc(OCc5nc6cc(F)ccc6s5)n4)CC3)n(C[C@@H]3CCO3)c2c1', 'Criterion met');

----------
- test-system: human GLP-1R (Homo sapiens)
- method-summary: GLP-1R Cell Assay 1: cAMP Hunter CHO-K1 GLP1R Gs cell line, HitHunter cAMP assay
- Type: cell-based
- measurement-conditions: Table 2; cAMP Hunter CHO-K1 GLP1R Gs cells; percent activity normalized to Exendin-4
Quick reference: EC50 of the listed items.
quantity: EC50

INSERT INTO results (compound, quantity, reported_measurement) VALUES
  ('O=C(O)c1ccc2nc(CN3CCN(c4cccc(OC5CCC6(CCC6)CC5)n4)CC3)n(C[C@@H]3CCO3)c2c1 [Compound 49]', 'EC50', '> 500 nM'),
  ('O=C(O)c1ccc2nc(CN3CCC(O)(c4cccc(OCc5ccccc5)n4)CC3)n(C[C@@H]3CCO3)c2c1 [Compound 18]', 'EC50', '> 500 nM'),
  ('C[C@@]1(c2cccc(OCc3ccc(C#N)cc3F)n2)CCN(Cc2nc3ccc(C(=O)O)cc3n2C[C@@H]2CCO2)C1 (single isomer, unassigned) [Compound 20-P1]', 'EC50', '> 500 nM');

----------
- test-system: human GLP-1R (Homo sapiens, UniProt P43220)
- Sequence (P43220 24-463): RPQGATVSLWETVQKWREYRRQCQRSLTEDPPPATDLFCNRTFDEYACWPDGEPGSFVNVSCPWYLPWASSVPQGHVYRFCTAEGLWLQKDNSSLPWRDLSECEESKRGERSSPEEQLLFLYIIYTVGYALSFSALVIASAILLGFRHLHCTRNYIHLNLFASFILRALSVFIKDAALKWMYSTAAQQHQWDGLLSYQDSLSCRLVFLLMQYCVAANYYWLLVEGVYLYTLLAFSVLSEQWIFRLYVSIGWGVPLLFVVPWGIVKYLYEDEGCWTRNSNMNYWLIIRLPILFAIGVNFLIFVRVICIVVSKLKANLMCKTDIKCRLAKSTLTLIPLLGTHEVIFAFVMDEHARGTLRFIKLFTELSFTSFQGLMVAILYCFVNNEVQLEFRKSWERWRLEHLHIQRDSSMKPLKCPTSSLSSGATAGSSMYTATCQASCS
- method-summary: GLP-1R Cell Assay 1: cAMP Hunter CHO-K1 GLP1R Gs cell line, HitHunter cAMP assay
- Format: cell-based
- measurement-conditions: Table 2; cAMP Hunter CHO-K1 GLP1R Gs cells; percent activity normalized to Exendin-4
pEC50: −log10 of the molar value.
Outcome: rule met for pEC50 of at least 9; rule not met for anything lower.

INSERT INTO results (compound, assigned_category) VALUES
  ('O=C(O)c1ccc2nc(CN3CCN(c4cccc(OCC5CC6(COC6)C5)n4)CC3)n(C[C@@H]3CCO3)c2c1 [Compound 43]', 'rule not met'),
  ('O=C(O)c1ccc2nc(CN3CCN(c4cccc(OCC5CC(F)(F)C5)n4)CC3)n(C[C@@H]3CCO3)c2c1 [Compound 50]', 'rule not met'),
  ('O=C(O)c1ccc2nc(CN3CCN(c4cccc(OCc5nc6cccnc6s5)n4)CC3)n(C[C@@H]3CCO3)c2c1 [Compound 122]', 'rule not met'),
  ('N#Cc1ccc2c(c1)CN(c1cccc(N3CCN(Cc4nc5ccc(C(=O)O)cc5n4C[C@@H]4CCO4)CC3)n1)CCC2 [Compound 66]', 'rule not met'),
  ('O=C(O)c1ccc2nc(CN3CCC(n4ccc(OCc5ccccc5)n4)CC3)n(C[C@@H]3CCO3)c2c1 [Compound 22]', 'rule not met'),
  ('N#Cc1ccc(COc2cccc(N3CCN(Cc4nc5ccc(C(=O)O)cc5n4CC4CCS4(=O)=O)CC3)n2)c(F)c1 (single isomer, unassigned) [Compound 140-P2]', 'rule met'),
  ('N#CC1(COc2cccc(N3CCN(Cc4nc5ccc(C(=O)O)cc5n4C[C@@H]4CCO4)CC3)n2)CCOCC1 [Compound 41]', 'rule not met'),
  ('N#Cc1cccc2c1CN(c1cccc(N3CCN(Cc4nc5ccc(C(=O)O)cc5n4C[C@@H]4CCO4)CC3)n1)CCC2 [Compound 80]', 'rule not met'),
  ('O=C(O)c1ccc2nc(CN3CCC4(c5cccc(OCc6ccccc6)n5)CC4C3)n(CC3CCO3)c2c1 (stereo not shown) [Compound 10]', 'rule not met'),
  ('O=C(O)c1ccc2nc(CN3CCN(c4cccc(OCc5ccccn5)n4)CC3)n(C[C@@H]3CCO3)c2c1 [Compound 40]', 'rule not met'),
  ('CCn1cncc1Cn1c(CN2CC[C@@]3(c4cccc(OCc5ccc(C#N)cc5F)n4)C[C@H]3C2)nc2ccc(C(=O)O)cc21 (single isomer, unassigned) [Compound 121-P1]', 'rule met'),
  ('CCn1cncc1Cn1c(CN2CCC(c3cccc(N4CCc5cc(C#N)cc(F)c5C4)n3)CC2)nc2ccc(C(=O)O)cc21 [Compound 137]', 'rule met'),
  ('O=C(O)c1ccc2nc(CN3CCC(n4ccc(OCCc5ccccc5)n4)CC3)n(C[C@@H]3CCO3)c2c1 [Compound 99]', 'rule not met'),
  ('N#Cc1ccc(COc2cccc(C34CCN(Cc5nc6ccc(C(=O)O)cc6n5C[C@@H]5CCO5)CC3C4)n2)c(F)c1 (stereo partly shown) [Compound 9]', 'rule met'),
  ('N#Cc1ccc(COc2cccc(C3CCN([C@@H]4CCCn5c4nc4ccc(C(=O)O)cc45)CC3)n2)c(F)c1 [Compound 87]', 'rule not met');
